I'd be grateful if you could share measured Percent Effect for these entries.
System: Wolbachia pipientis
Assay: Anti-Wolbachia Cell-Based Screen
Format: functional
Set-up: scale not given: in the data most compounds retested in dose-response had high values
Details: 5 µM
The campaign covered roughly 48,000 compounds. About 13,000 (27%) showed an effect of 50% or more. This is one part of the list.
Express it in %; write the number only.

Q: Please look up its Percent Effect: CCNC(=O)c1ccc(CNCc2c(C)nn(C)c2N(C)C)cc1
Ans: 0.7448

Q: Can you handle CC(C)NC(=O)NCCCOC1CCOCC1 next?
Ans: -1.893

Q: Can you handle COc1c(CNCc2cccc(C(=O)N(C)C)c2)c(C)nn1C next?
Ans: 120.7

Q: Can you handle CCN(CC)Cc1ccc(C(=O)NC2CCc3ccccc32)o1 (stereo unspecified) next?
Ans: -6.624

Q: Can you handle COc1c(CNCc2ccc(C(=O)N(C)C(C)C)cc2)c(C)nn1C next?
Ans: 196.4

Q: Can you handle COC1CCCN(C(=O)Nc2nc(C)n(C)n2)C1 (stereo unspecified) next?
Ans: -6.454
